Where do these numbers come from? They come from paper PMC12881670.

# SYSTEM_TESTED: T1, FLAG-Hs_FPR2 C-terminally fused to Renilla Luciferase 8 (human, UniProt P25090 1-351)
# T1 sequence (looked up): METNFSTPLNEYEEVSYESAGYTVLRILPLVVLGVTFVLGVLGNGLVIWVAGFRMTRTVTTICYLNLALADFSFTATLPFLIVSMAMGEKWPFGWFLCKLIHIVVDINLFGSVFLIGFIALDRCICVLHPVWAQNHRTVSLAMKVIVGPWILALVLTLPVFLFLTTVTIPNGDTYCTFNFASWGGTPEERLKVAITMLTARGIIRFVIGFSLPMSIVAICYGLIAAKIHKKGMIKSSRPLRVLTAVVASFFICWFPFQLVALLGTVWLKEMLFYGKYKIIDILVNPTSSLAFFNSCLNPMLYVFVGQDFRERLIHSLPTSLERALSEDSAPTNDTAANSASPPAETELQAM
# METHOD: cell-based or functional assay
Where no end group is shown, it is not given here. [ ]: non-standard residue; d: D form. The star is where a group is joined. Palmitoyl = CCCCCCCCCCCCCCCC(=O)*; For = O=C*
Assignment: determine reported BRET of receptor-RLuc8 with Arrestin 3-YFP: Emax (% of 1 μM WKYMVm) for the given binders.
Record the value in %, omitting the unit from your answer.

Task: // BRET of receptor-RLuc8 with Arrestin 3-YFP: Emax (% of 1 μM WKYMVm) lookup, key: {Palmitoyl-Palmitoyl}-KIHKKGMIKS (Pal is printed twice; the text speaks of N-terminal palmitoylation as the last step of the synthesis; also called pepducin; source: synthetic peptide (Fmoc solid phase, purified by preparative RP-HPLC)) [F2Pal10 (Pal-Pal-KIHKKGMIKS)]
Output: 25.5

Task: Entry to check: For-MTPMRKINPLMKLIN [MCT-2 (Formyl-MTPMRKINPLMKLIN from Cytochrome b)]
Output: 51.8

Task: Would you mind doing WKYMVM (synthetic hexapeptide, all L residues; also called L-enantiomer of WKYMVm; source: bought: Tocris) as well?
Output: 94.8

Task: Same for WKYMV[dM] (the last residue is the D form; the bought peptide is probably also an amide (surmise); source: bought: Tocris) [WKYMVm]
Output: 102

Task: And the next one, For-MLFK [fMet-Leu-Phe-Lys (fMLFK)] ?
Output: 92.7
